Examples of compounds with documented LVEDP (min), period of action follow.
Tested on: anesthetised dogs
assay.text: Haemodynamic effects on anesthetised dogs
Type: in vivo, dogs (labrador/harrier cross)
assay.conditions: dogs, 3 mg/kg i.v.
Where a name gives a salt, the structure may show the parent alone.
readout: LVEDP (min), period of action

>  <compound>
O=C(N[C@H]1CO[C@H]2[C@@H]1OC[C@@H]2O[N+](=O)[O-])[C@@H]1CCCN1 [Compound 14, monohydrochloride]

>  <unit.of.measurement>
min

>  <comparison.symbol>
>

>  <meas.value>
90

$$$$
>  <compound>
O=C(N[C@H]1CO[C@H]2[C@@H]1OC[C@H]2O[N+](=O)[O-])[C@@H]1CSCN1 [Compound 40, monohydrochloride]

>  <unit.of.measurement>
min

>  <comparison.symbol>
>

>  <meas.value>
90

$$$$
>  <compound>
CC(C)(C)OC(=O)N[C@@H](CSSc1ccccc1[N+](=O)[O-])C(=O)N[C@H]1CO[C@H]2[C@@H]1OC[C@@H]2O[N+](=O)[O-]

>  <unit.of.measurement>
min

>  <comparison.symbol>
=

>  <meas.value>
0

$$$$
>  <compound>
CC(C)(C)OC(=O)N[C@@H](Cc1ccccc1)C(=O)N[C@H]1CO[C@H]2[C@@H]1OC[C@@H]2O[N+](=O)[O-]

>  <unit.of.measurement>
min

>  <comparison.symbol>
=

>  <meas.value>
0

$$$$
>  <compound>
NCC(=O)O[C@H]1CO[C@H]2[C@@H]1OC[C@H]2O[N+](=O)[O-] [Compound 2, monohydrochloride]

>  <unit.of.measurement>
min

>  <comparison.symbol>
>

>  <meas.value>
120

$$$$
>  <compound>
CC(C)(C)OC(=O)NCC(=O)O[C@H]1CO[C@H]2[C@@H]1OC[C@H]2O[N+](=O)[O-]

>  <unit.of.measurement>
min

>  <comparison.symbol>
=

>  <meas.value>
10

$$$$
>  <compound>
C[C@H](NC(=O)OC(C)(C)C)C(=O)N[C@H]1CO[C@H]2[C@@H]1OC[C@@H]2O[N+](=O)[O-]

>  <unit.of.measurement>
min

>  <comparison.symbol>
>

>  <meas.value>
90

$$$$
>  <compound>
CC(C)(C)OC(=O)N1CSC[C@H]1C(=O)O[C@@H]1CO[C@H]2[C@@H]1OC[C@@H]2O[N+](=O)[O-]

>  <unit.of.measurement>
min

>  <comparison.symbol>
=

>  <meas.value>
10

$$$$
>  <compound>
CC(C)[C@H](NC(=O)[C@@H]1CSCN1C(=O)OC(C)(C)C)C(=O)N[C@H]1CO[C@H]2[C@@H]1OC[C@@H]2O[N+](=O)[O-]

>  <unit.of.measurement>
min

>  <comparison.symbol>
=

>  <meas.value>
60

$$$$
>  <compound>
CC(=O)NCSC[C@H](N)C(=O)O[C@@H]1CO[C@H]2[C@@H]1OC[C@@H]2O[N+](=O)[O-] [Compound 27, monohydrochloride]

>  <unit.of.measurement>
min

>  <comparison.symbol>
>

>  <meas.value>
90

$$$$
>  <compound>
O=C(CNC(=O)[C@@H]1CSCN1)O[C@H]1CO[C@H]2[C@@H]1OC[C@H]2O[N+](=O)[O-] [Compound 73, monohydrochloride]

>  <unit.of.measurement>
min

>  <comparison.symbol>
=

>  <meas.value>
60

$$$$
>  <compound>
O=C(N[C@H]1CO[C@H]2[C@@H]1OC[C@H]2O[N+](=O)[O-])c1ccccc1SCc1ccccc1

>  <unit.of.measurement>
min

>  <comparison.symbol>
=

>  <meas.value>
0

$$$$

====

# reported LVEDP, difference to base value; entries follow
Tested on: anesthetised dogs
assay.text: Haemodynamic effects on anesthetised dogs
Format: in vivo, dogs (labrador/harrier cross)
assay.conditions: dogs, 10 mg/kg i.v.
Description: Haemodynamic effects of the compounds according to the invention on anesthetised pigs or dogs The dogs, weighing between 16 and 26 kg, are the progeny of a labrador/harrier cross. […] Following an equilibration period of the order of 45 minutes, the compounds studied are administered intraduodenally (i.d.) or intraveinously (i.v.) to several animals (1 to 4). The haemodynamic variables are recorded continuously for 1 to 3 hours, as a function of the period of action of the compound. […]
Structures can show the parent of a compound that is named as a salt.
readout: LVEDP, difference to base value

>  <molecule>
CSCC[C@H](NC(=O)OC(C)(C)C)C(=O)N[C@H]1CO[C@H]2[C@@H]1OC[C@H]2O[N+](=O)[O-]

>  <measured.target>
anesthetised dogs

>  <meas.value>
-1,0 mmHg

$$$$
>  <molecule>
CC(C)(C)OC(=O)N1CSC[C@H]1C(=O)NCC(=O)O[C@H]1CO[C@H]2[C@@H]1OC[C@H]2O[N+](=O)[O-]

>  <measured.target>
anesthetised dogs

>  <meas.value>
0,0 mmHg

$$$$
>  <molecule>
CSCC[C@H](NC(=O)OC(C)(C)C)C(=O)N[C@H]1CO[C@H]2[C@@H]1OC[C@@H]2O[N+](=O)[O-]

>  <measured.target>
anesthetised dogs

>  <meas.value>
-2,0 mmHg

$$$$
>  <molecule>
CC(=O)NCSC[C@H](NC(=O)OC(C)(C)C)C(=O)O[C@@H]1CO[C@H]2[C@@H]1OC[C@@H]2O[N+](=O)[O-]

>  <measured.target>
anesthetised dogs

>  <meas.value>
2,0 mmHg

$$$$
>  <molecule>
CC(=O)NCSC[C@H](N)C(=O)N[C@H]1CO[C@H]2[C@@H]1OC[C@H]2O[N+](=O)[O-] [Compound 42, monohydrochloride]

>  <measured.target>
anesthetised dogs

>  <meas.value>
0,0 mmHg

$$$$
>  <molecule>
CC(C)(C)OC(=O)N1CSC[C@H]1C(=O)O[C@H]1CO[C@H]2[C@@H]1OC[C@H]2O[N+](=O)[O-]

>  <measured.target>
anesthetised dogs

>  <meas.value>
3,0 mmHg

$$$$
>  <molecule>
O=C(O[C@H]1CO[C@H]2[C@@H]1OC[C@H]2O[N+](=O)[O-])[C@@H]1CSCN1 [Compound 19, monohydrochloride]

>  <measured.target>
anesthetised dogs

>  <meas.value>
0,0 mmHg

$$$$
>  <molecule>
NCC(=O)N[C@H]1CO[C@H]2[C@@H]1OC[C@H]2O[N+](=O)[O-] [Compound 16, monohydrochloride]

>  <measured.target>
anesthetised dogs

>  <meas.value>
-1,0 mmHg

$$$$

====

System: anesthetised pigs
assay.text: Haemodynamic effects on anesthetised pigs
Format: in vivo, pigs ("German land" race)
assay.conditions: pigs, 3,0 mg/kg i.d.
Structures can show the parent of a compound that is named as a salt.

>  <molecule>
CC1(C)N[C@H](C(=O)N[C@H]2CO[C@H]3[C@@H]2OC[C@@H]3O[N+](=O)[O-])CS1 [Compound 32, monohydrochloride]

>  <LVRDP, difference to base value>
-4,0 mmHg

$$$$
>  <molecule>
O=C(CNC(=O)OCc1ccccc1)N[C@H]1CO[C@H]2[C@@H]1OC[C@@H]2O[N+](=O)[O-] [Compound 4]

>  <LVRDP, difference to base value>
-2,0 mmHg

$$$$
>  <molecule>
O=C(N[C@H]1CO[C@H]2[C@@H]1OC[C@@H]2O[N+](=O)[O-])[C@@H]1CSCN1 [Compound 30, monohydrochloride]

>  <LVRDP, difference to base value>
-2,0 mmHg

$$$$
>  <molecule>
O=C(O[C@@H]1CO[C@H]2[C@@H]1OC[C@@H]2O[N+](=O)[O-])c1ccccc1SCc1ccccc1 [Compound 28]

>  <LVRDP, difference to base value>
-6,0 mmHg

$$$$
>  <molecule>
O=C(CNC(=O)[C@@H]1CSCN1)N[C@H]1CO[C@H]2[C@@H]1OC[C@@H]2O[N+](=O)[O-] [Compound 46, monohydrochloride]

>  <LVRDP, difference to base value>
-5,0 mmHg

$$$$
>  <molecule>
O=[N+]([O-])O[C@@H]1CO[C@H]2[C@@H]1OC[C@@H]2O [IS-5-MN, isosorbide 5-mononitrate, reference compound]

>  <LVRDP, difference to base value>
-3 mmHg

$$$$

====

Reported values of LVRDP (min), period of action for individual entries
System: anesthetised pigs
assay.text: Haemodynamic effects on anesthetised pigs
Assay type: in vivo, pigs ("German land" race)
assay.conditions: pigs, 10,0 mg/kg i.d.
Counter-ions that a name gives are not always drawn.

>  <molecule>
CC(=O)NCSC[C@H](N)C(=O)N[C@H]1CO[C@H]2[C@@H]1OC[C@@H]2O[N+](=O)[O-] [Compound 34, monohydrochloride]

>  <LVRDP (min), period of action>
> 180 min

$$$$
>  <molecule>
CC1(C)SC[C@@H](C(=O)N[C@H]2CO[C@H]3[C@@H]2OC[C@@H]3O[N+](=O)[O-])N1C=O [Compound 31, monohydrochloride]

>  <LVRDP (min), period of action>
> 60 min

$$$$
>  <molecule>
CC(=O)NCSC[C@H](NC(=O)OC(C)(C)C)C(=O)N[C@H]1CO[C@H]2[C@@H]1OC[C@@H]2O[N+](=O)[O-]

>  <LVRDP (min), period of action>
> 60 min

$$$$
>  <molecule>
O=C(N[C@H]1CO[C@H]2[C@@H]1OC[C@@H]2O[N+](=O)[O-])c1ccccc1SCc1ccccc1

>  <LVRDP (min), period of action>
> 90 min

$$$$
>  <molecule>
O=C(CNC(=O)c1ccccc1SCc1ccccc1)N[C@H]1CO[C@H]2[C@@H]1OC[C@@H]2O[N+](=O)[O-]

>  <LVRDP (min), period of action>
> 90 min

$$$$
>  <molecule>
O=[N+]([O-])O[C@@H]1CO[C@H]2[C@@H]1OC[C@@H]2O [IS-5-MN, isosorbide 5-mononitrate, reference compound]

>  <LVRDP (min), period of action>
> 120 min

$$$$
>  <molecule>
CC1(C)SC[C@@H](C(=O)NCC(=O)N[C@H]2CO[C@H]3[C@@H]2OC[C@@H]3O[N+](=O)[O-])N1C=O

>  <LVRDP (min), period of action>
> 180 min

$$$$
